Catalogue of Kd values
Biological target: Serine/threonine-protein kinase mTOR (Homo sapiens) (UniProt P42345)
Sequence (P42345 2015-2114): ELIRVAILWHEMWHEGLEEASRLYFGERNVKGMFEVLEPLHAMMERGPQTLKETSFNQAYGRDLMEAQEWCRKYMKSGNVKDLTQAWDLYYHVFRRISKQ
Experiment: binders of mTOR FRB domain, biophysical, NMR (AID 1648)
Conditions: NMR binding to FRB domain, chemical shift
Activity calls are given as the source filed them. The rule behind the calls is not given here.

- compound: "CN1C(=O)C2CC=C(Cl)CC2C1=O (configuration not stated)"
  Kd: "> 4 mM (inactive)"
- compound: "Nc1nc2ccccc2n1CCN1CCCC1"
  Kd: "> 4 mM (inactive)"
- compound: "COC1=CC(=O)C=C(OC)C1=O"
  Kd: "> 4 mM (inactive)"
- compound: "O=C(Nc1ccccc1)c1cccc(N2C(=O)CCC2=O)c1"
  Kd: "> 4 mM (inactive)"
- compound: "Nc1cc2ccccc2cn1"
  Kd: "> 4 mM (inactive)"
- compound: "CCCCCC/C=C\\CCCCCCCc1cccc(O)c1C(=O)O"
  Kd: "> 4 mM (inactive)"

Turning to the following compound.
Item under review: "NC(=O)CCn1c(=O)oc2ccccc21" . Reported Kd? > 4 mM (inactive)

---

Catalogue of Kd values
Target: Serine/threonine-protein kinase mTOR (Homo sapiens) (UniProt P42345)
Assay: binders of mTOR FRB domain, biophysical, NMR (AID 1648)
Settings: NMR binding to FRB domain, chemical shift
Activity calls are given as the source filed them. How the calls were made is not given here.

Here is how some molecules turned out for Kd.
- molecule: "CCOC(=O)C1CCNCC1"
  Kd: "> 4 mM (inactive)"
- molecule: "COc1cc(C(=O)NCC2CCCO2)cc(OC)c1OC (configuration not stated)"
  Kd: "> 4 mM (inactive)"

Item under review: CC(C)(C)C(=O)N1CCCC1C(=O)O (configuration not stated) . Reported Kd? > 4 mM (inactive)

Item under review: "Cc1c(F)cccc1NS(=O)(=O)c1ccccc1C#N" . Reported Kd? > 4 mM (inactive)

Item under review: "CCN1CCC(=NO)CC1" . Reported Kd? > 4 mM (inactive)

Item under review: "CC1=C(C(N)=O)C(c2ccco2)C(C(N)=O)=C(C)N1" . Reported Kd? > 4 mM (inactive)

Item under review: "Nc1cccc(S(=O)(=O)N2CCCCC2)c1" . Reported Kd? > 4 mM (inactive)

Item under review: "O=C(O)CCc1nc2ccccc2[nH]c1=O" . Reported Kd? > 4 mM (inactive)

Item under review: CC(=O)Oc1cc2c(c(C)c1OC(C)=O)CC=C1[C@@]2(C)CC[C@@]2(C)C3C[C@](C)(C(=O)O)CC[C@]3(C)CC[C@]12C (some centres not stated) . Reported Kd? > 4 mM (inactive)

Item under review: "Nc1cc(F)nc(F)n1" . Reported Kd? > 4 mM (inactive)

Item under review: "c1ccc(Cc2nnc(-c3ccccc3)o2)cc1" . Reported Kd? > 4 mM (inactive)

Item under review: "CCc1c(C(=O)Nc2ccncc2)csc1C" . Reported Kd? > 4 mM (inactive)

Item under review: "O=C1CSC(=Nc2cccc(C(=O)O)c2)N1" . Reported Kd? > 4 mM (inactive)

---

Biological target: Serine/threonine-protein kinase mTOR (Homo sapiens)
Assay: binders of mTOR FRB domain, biophysical, NMR (AID 1648)
Conditions: NMR binding to FRB domain, chemical shift
Calls of active or inactive are those of the source. No rule for the calls is given here.
observation_type: Kd

Here is how some molecules turned out for Kd.
- molecule: "Cc1nc(-c2ccc(NS(C)(=O)=O)cc2)cs1"
  Kd: "> 4 mM (inactive)"
- molecule: "Cc1cccc(C(C)C)c1NC(=O)c1cccnc1"
  Kd: "> 4 mM (inactive)"
- molecule: "Cc1cc(C(=O)N2CCOCC2)c(C)o1"
  Kd: "> 4 mM (inactive)"
- molecule: "O=C(Nc1ccon1)c1cc2c(s1)CCCC2"
  Kd: "> 4 mM (inactive)"
- molecule: "Oc1cc(O)c2c(c1)O[C@H](c1cc(O)c(O)c(O)c1)[C@H](O)C2"
  Kd: "> 4 mM (inactive)"

Turning to the following molecule.
Item under review: C[C@]12CC(=O)C3C(CC[C@@H]4C[C@H](O)CC[C@]34C)C1CC[C@]2(O)C(=O)CO (stereo partly specified) . Reported Kd? > 4 mM (inactive)
